The measurements presented in this section are drawn from PubChem BioAssay AID1996.

List of solubility kinetic values.
- condition.details: buffer; pH 7.4; 200.0 µM
reported.property: solubility kinetic (µg/mL)

[
  {
    "compound": "O=C(OCC(=O)N1CCN(c2ccc(F)cc2)CC1)c1cnc2ccccc2n1",
    "reported.property": "solubility kinetic",
    "value.modifier": "=",
    "assay.result": 19.5
  },
  {
    "compound": "CCc1ccc(NC(=O)C(=O)NCC2CCCO2)cc1 (centres undefined)",
    "reported.property": "solubility kinetic",
    "value.modifier": "=",
    "assay.result": 18.5
  },
  {
    "compound": "COc1ccc(NC(=O)c2ccccc2-c2ccccc2)c(C)c1",
    "reported.property": "solubility kinetic",
    "value.modifier": "=",
    "assay.result": 7.2
  },
  {
    "compound": "O=[N+]([O-])c1ccc(Cl)c(NC(=S)N2CCCC2)c1",
    "reported.property": "solubility kinetic",
    "value.modifier": "=",
    "assay.result": 9.7
  },
  {
    "compound": "O=C(NCc1ccncc1)c1cc(C(=O)C2CC2)c[nH]1",
    "reported.property": "solubility kinetic",
    "value.modifier": "=",
    "assay.result": 36.2
  },
  {
    "compound": "CC(=O)Nc1cccc(NC(=O)Cc2cccs2)c1",
    "reported.property": "solubility kinetic",
    "value.modifier": "=",
    "assay.result": 28.4
  },
  {
    "compound": "COC(=O)c1sc(=S)n(Cc2ccccc2)c1C",
    "reported.property": "solubility kinetic",
    "value.modifier": "=",
    "assay.result": 7.1
  },
  {
    "compound": "O=Cc1cnc2ccccc2c1-c1ccccc1",
    "reported.property": "solubility kinetic",
    "value.modifier": "=",
    "assay.result": 27.8
  },
  {
    "compound": "CCc1ccc(C(=O)NC(CCSC)C(=O)OC)cc1 (centres undefined)",
    "reported.property": "solubility kinetic",
    "value.modifier": ">",
    "assay.result": 44.3
  },
  {
    "compound": "CC(=O)Nc1ccc(C(=O)Nc2ccc3c(c2)OCCO3)cc1",
    "reported.property": "solubility kinetic",
    "value.modifier": "=",
    "assay.result": 22.8
  },
  {
    "compound": "CCCC(=O)NC(=S)c1c(C)n(C)n(-c2ccccc2)c1=O",
    "reported.property": "solubility kinetic",
    "value.modifier": ">",
    "assay.result": 47.6
  },
  {
    "compound": "S=C(NCc1ccco1)NC1CCCc2ccccc21 (centres undefined)",
    "reported.property": "solubility kinetic",
    "value.modifier": "=",
    "assay.result": 36.4
  },
  {
    "compound": "CS(=O)(=O)N(CC(=O)N1CCCC1)Cc1ccc(F)cc1",
    "reported.property": "solubility kinetic",
    "value.modifier": ">",
    "assay.result": 47.2
  },
  {
    "compound": "CCC(=O)Nc1cc(-c2cc3ccccc3oc2=O)ccc1OC",
    "reported.property": "solubility kinetic",
    "value.modifier": "=",
    "assay.result": 11
  },
  {
    "compound": "c1cnc2c(c1)ccc1cccnc12",
    "reported.property": "solubility kinetic",
    "value.modifier": ">",
    "assay.result": 27
  },
  {
    "compound": "CCCCOc1ccc(C(=O)OCC(=O)NC2CCCC2)cc1",
    "reported.property": "solubility kinetic",
    "value.modifier": "=",
    "assay.result": 5.5
  },
  {
    "compound": "O=C(NCc1ccccc1)c1c[nH]c2ccc(F)cc2c1=O",
    "reported.property": "solubility kinetic",
    "value.modifier": "=",
    "assay.result": 9.1
  },
  {
    "compound": "COc1ccc(N2C(=O)CC(c3ccccc3)C2=O)cc1 (centres undefined)",
    "reported.property": "solubility kinetic",
    "value.modifier": "=",
    "assay.result": 11.2
  },
  {
    "compound": "CNc1ccccc1NC(=O)CCn1c(=S)oc2ccccc21",
    "reported.property": "solubility kinetic",
    "value.modifier": "=",
    "assay.result": 5.6
  },
  {
    "compound": "CC(C)N(C)S(=O)(=O)c1ccc(Cl)c(C(=O)O)c1",
    "reported.property": "solubility kinetic",
    "value.modifier": ">",
    "assay.result": 43.8
  },
  {
    "compound": "CCN1CCN(CCC(=O)Nc2ccccc2C)CC1",
    "reported.property": "solubility kinetic",
    "value.modifier": ">",
    "assay.result": 41.3
  },
  {
    "compound": "CCCc1c(C)nc(-c2ccc(C)cc2)nc1OC(=O)N(C)C",
    "reported.property": "solubility kinetic",
    "value.modifier": "=",
    "assay.result": 27.3
  },
  {
    "compound": "CSc1ncccc1C(=O)OCC(=O)Nc1ccc(Cl)cn1",
    "reported.property": "solubility kinetic",
    "value.modifier": "=",
    "assay.result": 3.6
  },
  {
    "compound": "CCCOc1ccc(Cl)cc1/C=C1/C(=O)ON=C1C",
    "reported.property": "solubility kinetic",
    "value.modifier": "=",
    "assay.result": 29.2
  }
]
